# experimental system: T1, human VISTA (human, UniProt Q9H7M9 33-194, limits assumed)
# T1 construct: The ELISA text says only recombinant VISTA; also called recombinant VISTA
# measurement description: method not stated (Table 1, column Kd, M)
result type: Kd (nM)

[[record]]
binder = "VSTB81 (antibody, V domains shown) VH: QVTLKESGPALVKPTQTLTLTCTFSGFSLSTSGMGVSWIRQPPGKALEWLAHIYWDDDKRYNPSLKSRLTISKDTSKNQVVLTMTNMDPVDTATYYCARRPDYFGSSYVDWGQGTTVTVSS VL: DIVMTQTPLSLSVTPGQPASISCRASESVDTYGNSFMHWYLQKPGQPPQLLIYLASNLDFGVPDRFSGSGSGTDFTLKISRVEAEDVGVYYCQQNNEDPWTFGQGTKLEIKR"
result_type = "Kd"
observed_result = 0.312

[[record]]
binder = "INX900 | VSTB50 (antibody, V domains shown, INX name = the VSTB variable regions with human IgG2 constant regions) VH: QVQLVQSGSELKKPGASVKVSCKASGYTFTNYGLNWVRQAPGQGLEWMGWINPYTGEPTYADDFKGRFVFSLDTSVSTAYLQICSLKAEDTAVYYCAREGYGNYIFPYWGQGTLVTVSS VL: DIVMTQTPLSLSVTPGQPASISCRASESVDTYANSLMHWYLQKPGQPPQLLIYRASNLESGVPDRFSGSGSGTDFTLKISRVEAEDVGVYYCQQTNEDPRTFGQGTKLEIK"
result_type = "Kd"
observed_result = 0.632

[[record]]
binder = "VSTB70 (antibody, V domains shown) VH: EVQLVQSGAEVKKPGATVKISCKVSGYTFSNYWIEWVQQAPGKGLEWMGEILPGSGNVHYNEKFKGRVTITADTSTDTAYMELSSLRSEDTAVYYCATPPHYYGYDYYDVNYWGQGTLVTVSS VL: DVVMTQSPLSLPVTLGQPASISCKSSQSLLDSDGKTYLNWFQQRPGQSPRRLIYLVSELDSGVPDRFSGSGSGTDFTLKISRVEAEDVGVYYCWQGTHFPQTFGQGTKLEIKR"
result_type = "Kd"
observed_result = 2.23

